Biological target: histamine H1-receptor (guinea pig ileum) (Cavia porcellus)
Construct: an isolated portion of the guinea pig ileum is secured under tension; from tissue; host or cells: isolated guinea pig ileum
Sequence (P31389 whole entry): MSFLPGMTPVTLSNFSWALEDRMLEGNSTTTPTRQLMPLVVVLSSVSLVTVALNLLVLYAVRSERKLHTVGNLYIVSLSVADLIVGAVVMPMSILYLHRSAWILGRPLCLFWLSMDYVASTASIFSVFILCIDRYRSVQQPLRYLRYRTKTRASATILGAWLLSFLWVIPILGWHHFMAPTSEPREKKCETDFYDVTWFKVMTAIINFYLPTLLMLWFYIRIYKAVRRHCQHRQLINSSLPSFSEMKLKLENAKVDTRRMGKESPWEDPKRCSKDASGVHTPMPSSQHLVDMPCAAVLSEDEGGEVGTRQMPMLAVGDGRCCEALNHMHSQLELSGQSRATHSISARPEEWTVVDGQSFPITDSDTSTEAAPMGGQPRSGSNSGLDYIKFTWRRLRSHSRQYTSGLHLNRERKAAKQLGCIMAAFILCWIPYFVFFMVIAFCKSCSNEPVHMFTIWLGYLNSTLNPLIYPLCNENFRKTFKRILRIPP
Experiment: in vitro guinea pig ileum test (histamine H1-antagonist activity)
Format: cell-based
Conditions: isolated guinea pig ileum, magnesium free Tyrode solution, 30° C., 8 min contact, histamine as agonist; read-out: pA2 ileum (converted)
Protocol: In this test an isolated portion of the guinea pig ileum is secured under tension (500 mg) between an anchorage and a transducer in a 10 ml tissue bath and immersed in magnesium free Tyrode solution with constant aeration at a temperature of 30° C. The output from the transducer is amplified. […] Measured amounts of histamine are added to the tissue bath so that the histamine concentration increases step-wise until the force of the contraction reaches a maximum. […]
parameter-measured: Kb (nM)

Consider the worked cases shown below.
| compound | parameter-measured | numeric-readout |
| --- | --- | --- |
| Cc1cc(Br)cnc1CCCNc1ncc(Cc2cccnc2)cc1O [3(h)] | Kb | 1.51 |
| Cc1cc(Br)cnc1CCCCNc1ncc(Cc2cccnc2)cc1OP(=O)(O)O [1(i)] | Kb | 8.13 |

[a] Oc1cc(Cc2cccnc2)cnc1NCCCC1CCCc2cccnc21 (stereo not shown) [2(e)]
[b] Cc1cc(Br)cnc1CCCCNc1ncc(Cc2cccnc2)cc1O [1(h)]
**Query** Of a and b , whose reported Kb is numerically smaller? Answer format: the label of the selected item.
**Result** b

Where these numbers come from: patent US4863933A
